# experimentDescription: Drug uptake in mouse brain at 5 mg/kg, iv
# Type: ADME, organism-based
# conditionNotes: in vivo, read-out: Drug uptake
measureName: concentration (nM)
Your answer is read as nM, so omit the unit and give the number.

Value of measured concentration for the entry O=C(/C=C/CCc1ccccc1)c1cccs1 : 20

====

# targetUnderTest: G-protein coupled receptor 52 (Mus musculus, UniProt P0C5J4)
# Sequence (P0C5J4 whole entry): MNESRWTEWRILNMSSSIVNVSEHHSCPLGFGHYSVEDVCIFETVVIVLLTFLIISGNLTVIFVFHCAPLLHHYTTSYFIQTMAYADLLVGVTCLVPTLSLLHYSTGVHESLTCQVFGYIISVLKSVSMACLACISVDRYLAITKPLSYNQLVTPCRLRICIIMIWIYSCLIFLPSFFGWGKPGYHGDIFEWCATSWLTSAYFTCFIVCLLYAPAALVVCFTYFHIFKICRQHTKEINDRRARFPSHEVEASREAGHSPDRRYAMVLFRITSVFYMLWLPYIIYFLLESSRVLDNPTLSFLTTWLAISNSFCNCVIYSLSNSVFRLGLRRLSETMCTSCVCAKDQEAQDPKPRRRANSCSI
# experimentDescription: In-vivo antagonist activity at GPR52 in HdhQ140 mouse model with GPR52 knockdown assessed as decrease in mHTT levels
measureName: pIC50
Quick note: pIC50 means taking -log10 of the concentration in moles per liter.

Per the reported G-protein coupled receptor 52 (Mus musculus, UniProt P0C5J4) data, O=C(/C=C/CCc1ccccc1)CCc1ccccc1 has pIC50 of 5.22
